Test system: ACHN
Assay: NCI tumour cell line growth inhibition, 48 h
Active and inactive are the calls of the source. No stated cut-off is given here; in the data, active = GI50 up to about 1.1 µM and inactive = higher.
QUANTITY_MEASURED: GI50

Guide cases for GI50, answers given:
>>> df
                                   molecule               result
0  O=C1C(=Cc2ccccc2O)N=C(c2ccccc2)N1n1c(-c2ccccc2)nc2ccccc2c1=O   29.5 µM (inactive)
1      CC(=O)/C(=C\C1=CCCO1)C(=O)Nc1ccccc1C  > 100 µM (inactive)

For the next question, use this molecule.
*Q* Provide measured GI50 value, entry: CC1=CC(O)CC(C)(C)C1/C=C/C(C)=C/C=C/C(C)=C/C=C/C=C(C)/C=C/C=C(C)/C=C/C1=C(C)CC(O)CC1(C)C (stereo not drawn)
*A* 16.6 µM (inactive)
